// provenance: patent US20240309109A1

Biological target: T1, human CD38 on cells (human, UniProt P28907 1-300)
T1 construct: The cell that carried CD38 is named under assay in each row; also called CD38 on Raji, RPMI8226, OPM2, CCRF-CEM, human erythrocytes, CD38 CHO-K1 transfectants
Assay: FACS Scatchard, IgG1 on Raji cells
pKd: −log10 of the molar value.
MEASURED PROPERTY: pKd

>>> quantitative_readout("MOR03085 IgG1 (antibody, V domains shown) VH: QVQLVQSGAEVKKPGASVKVSCKASGYTFTGYYINWVRQAPGQGLEWMGWIFPNGGSTGYAQKFQGRVTMTRDTSISTAYMELSSLRSEDTAVYYCARGNIFIFDYWGQGTLVTVSS VL: DIVLTQPPSVSGAPGQRVTISCSGSSSNIGNNYVSWYQQLPGTAPKLLIYGDDQRPSGVPDRFSGSKSGTSASLAITGLQSEDEADYYCQSYGTFSSFVFGGGTKLTVLG")
8.00
>>> quantitative_readout("MOR03102 IgG1 (antibody, V domains shown) VH: QVQLQESGPGLVKPGETLSLTCTVSGGSISGNYWSWIRQAPGKGLEWIGDYHGSTYYNPSLKGRVTISVDTSKNQFSLKLSSVTAEDTAVYYCAREQYHWGLAWTGFDNWGQGTLVTVSS VL: DIELTQPPSVSVAPGQTARISCSGDNLGHYYVSWYQQKPGQAPVLVIYDDSDRPSGIPERFSGSNSGNTATLTISGTQAEDEADYYCGAYAMHMTVFGGGTKLTVLG")
8.30
>>> quantitative_readout("MOR03081 IgG1 (antibody, V domains shown) VH: QVQLVESGGGLVQPGGSLRLSCAASGFTFSSYALHWVRQAPGKGLEWVSSISGLGSTTYYADSVKGRFTISRDNSKNTLYLQMNSLRAEDTAVYYCARYHYEYHYFSSGFDNWGQGTLVTVSS VL: DIVLTQSPATLSLSPGERATLSCRASQTGSTSYLAWYQQKPGQAPRLLIYDASKRATGVPARFSGSGSGTDFTLTISSLEPEDFATYYCHQYYNVPHTFGQGTKVEIKR")
8.60
